Biological target: Camphor 5-monooxygenase (Pseudomonas putida)
Sequence (P00183 whole entry): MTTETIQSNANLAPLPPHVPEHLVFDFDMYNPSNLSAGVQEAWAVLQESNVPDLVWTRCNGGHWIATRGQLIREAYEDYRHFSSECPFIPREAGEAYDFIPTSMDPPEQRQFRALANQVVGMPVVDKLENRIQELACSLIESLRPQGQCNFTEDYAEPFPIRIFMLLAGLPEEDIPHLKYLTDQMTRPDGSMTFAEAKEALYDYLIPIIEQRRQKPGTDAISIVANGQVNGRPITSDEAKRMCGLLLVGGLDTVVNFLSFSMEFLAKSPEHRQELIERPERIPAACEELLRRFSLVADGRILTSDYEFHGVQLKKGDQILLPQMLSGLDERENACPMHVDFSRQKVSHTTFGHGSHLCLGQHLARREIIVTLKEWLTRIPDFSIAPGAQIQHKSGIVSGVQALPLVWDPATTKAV
Test: Inhibition of wild type cytochrome P450cam expressed in Escherichia coli
Entries and their IC50
The response must be a number in µM with no trailing unit.

Reference set, count: 3
CCC(CC)Cn1ccnc1 = 0.8
c1ccc(Cn2ccnc2)cc1 = 16
c1cn(CC2CC2)cn1 = 4

We now examine a further compound.
For record c1cn(CC2CCCCC2)cn1 the listed IC50 is 1.5

====

molecular target: Camphor 5-monooxygenase (Pseudomonas putida, UniProt P00183); assay: Binding constant for wild type cytochrome P450cam expressed in Escherichia coli; conditions: read-out: Ks
MEASUREMENT TYPE: Kd (µM)
The response must be a number in µM with no trailing unit.

For record CC(=O)N1CCN(c2ccc(OC[C@@H]3CO[C@@](Cn4ccnc4)(c4ccc(Cl)cc4Cl)O3)cc2)CC1 the listed Kd is 0.5

====

Entries and their inhibition at 1000 µM
Biological target: Camphor 5-monooxygenase (Pseudomonas putida, UniProt P00183)
Sequence (P00183 whole entry): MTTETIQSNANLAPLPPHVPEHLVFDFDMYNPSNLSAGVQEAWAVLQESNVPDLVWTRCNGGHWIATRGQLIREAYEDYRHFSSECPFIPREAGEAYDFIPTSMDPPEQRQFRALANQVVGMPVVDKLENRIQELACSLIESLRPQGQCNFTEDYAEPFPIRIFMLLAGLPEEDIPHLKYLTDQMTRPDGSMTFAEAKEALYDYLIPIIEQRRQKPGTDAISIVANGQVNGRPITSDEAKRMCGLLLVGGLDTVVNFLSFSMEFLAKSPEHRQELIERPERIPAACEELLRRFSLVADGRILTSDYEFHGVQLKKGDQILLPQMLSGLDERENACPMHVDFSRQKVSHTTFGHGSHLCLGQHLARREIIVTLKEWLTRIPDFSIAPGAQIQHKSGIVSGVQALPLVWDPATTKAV
Assay: Inhibition of wild type cytochrome P450cam expressed in Escherichia coli at 1 mM
The response must be a number in % with no trailing unit.

Tested on Camphor 5-monooxygenase (Pseudomonas putida, UniProt P00183): CC(C)Cc1cncn1CC1CC1 . Observed inhibition at 1000 µM: 20

Tested on Camphor 5-monooxygenase (Pseudomonas putida, UniProt P00183): c1ccc(Cn2cncc2C2CC2)cc1 . Observed inhibition at 1000 µM: 30

Tested on Camphor 5-monooxygenase (Pseudomonas putida, UniProt P00183): CCCc1cncn1C1CCCC1 . Observed inhibition at 1000 µM: 60

Tested on Camphor 5-monooxygenase (Pseudomonas putida, UniProt P00183): CC(C)(C)Cc1cncn1C1CC1 . Observed inhibition at 1000 µM: 80

Taken from ChEMBL document CHEMBL1138831.
